B1: LYSMD4 (parent)
chain: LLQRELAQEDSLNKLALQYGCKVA

Variants of: B1
Experiment: protein stability index of a GFP-peptide fusion (GPS, HEK-293T) (PSI 1-6); higher = more stable;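 also: lentivirally expressed fusions sorted by FACS into six bins by GFP to DsRed ratio, PSI derived from sequencing read proportions per bin multiplied by bin number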
Details: c terminus: a fixed tail appended
Attribute: protein stability index

Alteration: K14C
protein stability index: 2.37

Alteration: S11I
protein stability index: 1.04

Alteration: V23H
protein stability index: 2.77

Alteration: D10P
protein stability index: 1.86

Alteration: L15Y
protein stability index: 2.27

Alteration: A16K
protein stability index: 2.48

Alteration: K22R
protein stability index: 1.29

Alteration: R4S
protein stability index: 1.25

Alteration: C21M
protein stability index: 1.47

Alteration: L17P
protein stability index: 2.98

Alteration: N13G
protein stability index: 1.23

Alteration: L15K
protein stability index: 3.1

Alteration: A24R
protein stability index: 1.95

Alteration: V23F
protein stability index: 2.96

Alteration: N13R
protein stability index: 2.23

Alteration: L1Y
protein stability index: 2.5

Alteration: Q3N
protein stability index: 2.3

Alteration: D10F
protein stability index: 1.46

Alteration: E5A
protein stability index: 3.05

Alteration: Q18Y
protein stability index: 2.22

Alteration: L12F
protein stability index: 2.33

Alteration: G20A
protein stability index: 1.09
